- System: L1210 leukemia ip in BDF1 mice, survival T/C
- assay-remarks: NCI In Vivo Anticancer Drug Screen. Data for tumor model L1210 Leukemia (intraperitoneal) in B6D2F1 (BDF1) mice
- measurement-setup: endpoint: mean survival time; dose: 400.0 mg/kg/injection; schedule: Q01DX009 (ip); vehicle: saline with Tween-80; higher = longer survival
Inconclusive results and toxic doses are left out.
quantity-kind: T/C

# smiles-str, result
measured = [
    ("COc1ccc(NC(=O)Oc2ccc3c(C)cc(=O)oc3c2)c(OC)c1", "118 % of control"),
    ("CCCNC(=O)Nc1cccc(C(F)(F)F)c1", "88 % of control"),
    ("CCCNC(=O)Nc1cc(C(F)(F)F)ccc1Cl", "87 % of control"),
    ("O=C1c2ccccc2C(=O)N1CCCn1c2ccccc2c2cnccc21", "104 % of control"),
    ("Cc1cc(Br)ccc1N", "99 % of control"),
    ("CCOC(=O)CCN(CCC(=O)OCC)C(C)C", "98 % of control"),
]
